Source: patent US10981864B2

Test: Water Vapour Sorption isotherm (DVS), hygroscopicity acc. to Ph. Eur.
Assay type: physicochemical
readout: Hygroscopicity classification acc. to Ph. Eur. criteria (section 5.11.)

Solved cases (5 shown):
Cc1cc(S(C)(=O)=O)c(S(C)(=O)=O)cc1C(=O)NC(=N)N [Citrate-NF1] ... slightly hygroscopic
Cc1cc(S(C)(=O)=O)c(S(C)(=O)=O)cc1C(=O)NC(=N)N [Fumarate-NF1] ... slightly hygroscopic
Cc1cc(S(C)(=O)=O)c(S(C)(=O)=O)cc1C(=O)NC(=N)N [Besylate-NF1] ... slightly hygroscopic
Cc1cc(S(C)(=O)=O)c(S(C)(=O)=O)cc1C(=O)NC(=N)N [Phosphate-NF1] ... slightly hygroscopic
Cc1cc(S(C)(=O)=O)c(S(C)(=O)=O)cc1C(=O)NC(=N)N.Cl.O [HCl-H1, reference compound] ... non-hygroscopic

So what's the measured Hygroscopicity classification acc. to Ph. Eur. criteria (section 5.11.) for this one? Cc1cc(S(C)(=O)=O)c(S(C)(=O)=O)cc1C(=O)NC(=N)N [Malonate-NF1] slightly hygroscopic

So what's the measured Hygroscopicity classification acc. to Ph. Eur. criteria (section 5.11.) for this one? Cc1cc(S(C)(=O)=O)c(S(C)(=O)=O)cc1C(=O)NC(=N)N [Sulfate-NF3] slightly hygroscopic

So what's the measured Hygroscopicity classification acc. to Ph. Eur. criteria (section 5.11.) for this one? Cc1cc(S(C)(=O)=O)c(S(C)(=O)=O)cc1C(=O)NC(=N)N [Oxalate-NF1] non-hygroscopic

###

Experiment: Water Vapour Sorption isotherm (DVS), hygroscopicity acc. to Ph. Eur.
Format: physicochemical
Structures can show the parent of a compound that is named as a salt.
readout: Hygroscopicity classification acc. to Ph. Eur. criteria (section 5.11.)

Cc1cc(S(C)(=O)=O)c(S(C)(=O)=O)cc1C(=O)NC(=N)N [HBr-NF1] ... non-hygroscopic
Cc1cc(S(C)(=O)=O)c(S(C)(=O)=O)cc1C(=O)NC(=N)N (racemic) [Tartrate-NF1] ... slightly hygroscopic
Cc1cc(S(C)(=O)=O)c(S(C)(=O)=O)cc1C(=O)NC(=N)N [Succinate-NF1] ... non-hygroscopic
Cc1cc(S(C)(=O)=O)c(S(C)(=O)=O)cc1C(=O)NC(=N)N [HCl-A3] ... non-hygroscopic
Cc1cc(S(C)(=O)=O)c(S(C)(=O)=O)cc1C(=O)NC(=N)N [HCl-A2] ... non-hygroscopic

So what's the measured Hygroscopicity classification acc. to Ph. Eur. criteria (section 5.11.) for this one? Cc1cc(S(C)(=O)=O)c(S(C)(=O)=O)cc1C(=O)NC(=N)N [Tosylate-NF1] slightly hygroscopic

###

Experiment: Thermal behaviour (DSC/TGA), thermal stability
Type: physicochemical
Conditions: DSC/TGA 5 K/min
Structures can show the parent of a compound that is named as a salt.
readout: Thermal stability (mp/dec)

Solved cases (5 shown):
Cc1cc(S(C)(=O)=O)c(S(C)(=O)=O)cc1C(=O)NC(=N)N [HCl-A3] ... > 240 °C
Cc1cc(S(C)(=O)=O)c(S(C)(=O)=O)cc1C(=O)NC(=N)N [Phosphate-NF1] ... > 230 °C
Cc1cc(S(C)(=O)=O)c(S(C)(=O)=O)cc1C(=O)NC(=N)N [Malonate-NF1] ... > 190 °C
Cc1cc(S(C)(=O)=O)c(S(C)(=O)=O)cc1C(=O)NC(=N)N [Besylate-NF1] ... > 280 °C
Cc1cc(S(C)(=O)=O)c(S(C)(=O)=O)cc1C(=O)NC(=N)N [Maleate-NF1] ... > 170 °C

So what's the measured Thermal stability (mp/dec) for this one? Cc1cc(S(C)(=O)=O)c(S(C)(=O)=O)cc1C(=O)NC(=N)N [Citrate-NF1] ~180 °C

So what's the measured Thermal stability (mp/dec) for this one? Cc1cc(S(C)(=O)=O)c(S(C)(=O)=O)cc1C(=O)NC(=N)N [Maleate-NF2] > 200 °C

So what's the measured Thermal stability (mp/dec) for this one? Cc1cc(S(C)(=O)=O)c(S(C)(=O)=O)cc1C(=O)NC(=N)N [Succinate-NF1] > 200 °C

So what's the measured Thermal stability (mp/dec) for this one? Cc1cc(S(C)(=O)=O)c(S(C)(=O)=O)cc1C(=O)NC(=N)N [Oxalate-NF1] > 260 °C

So what's the measured Thermal stability (mp/dec) for this one? Cc1cc(S(C)(=O)=O)c(S(C)(=O)=O)cc1C(=O)NC(=N)N [Sulfate-NF3] > 210 °C

So what's the measured Thermal stability (mp/dec) for this one? Cc1cc(S(C)(=O)=O)c(S(C)(=O)=O)cc1C(=O)NC(=N)N [HCl-A2] > 240 °C

###

Assay: Water Vapour Sorption isotherm (DVS), hygroscopicity acc. to Ph. Eur.
Assay type: physicochemical
Settings: relative humidity range 0-90% rh, 25° C.
Here, each record is paired with measured Water uptake levels (Water Vapour Sorption) data.

Solved cases (3 shown):
Cc1cc(S(C)(=O)=O)c(S(C)(=O)=O)cc1C(=O)NC(=N)N [Citrate-NF1] ... ≤ 1.5 wt %
Cc1cc(S(C)(=O)=O)c(S(C)(=O)=O)cc1C(=O)NC(=N)N [Malate-NF1] ... 7.5 wt %
Cc1cc(S(C)(=O)=O)c(S(C)(=O)=O)cc1C(=O)NC(=N)N (racemic) [Tartrate-NF1] ... ≤ 1.0 wt %

Now for a further molecule.
So what's the measured Water uptake levels (Water Vapour Sorption) for this one? Cc1cc(S(C)(=O)=O)c(S(C)(=O)=O)cc1C(=O)NC(=N)N [Phosphate-NF1] ≤ 1.0 wt %

###

Assay: Mini-dissolution in FeSSIF medium (pH 5.0), dissolved quantity by HPLC
Assay type: physicochemical
Conditions: FeSSIF pH 5.0, 37° C., 5 min
Where a name gives a salt, the structure may show the parent alone.
readout: Dissolution levels in FeSSIF pH 5.0 (mg/mL)
API: value field is a number in mg/mL; no unit string.

Cc1cc(S(C)(=O)=O)c(S(C)(=O)=O)cc1C(=O)NC(=N)N [Sulfate-NF3] ... 2.590
Cc1cc(S(C)(=O)=O)c(S(C)(=O)=O)cc1C(=O)NC(=N)N [Succinate-NF1] ... 1.105
Cc1cc(S(C)(=O)=O)c(S(C)(=O)=O)cc1C(=O)NC(=N)N [Maleate-NF2] ... 2.043
Cc1cc(S(C)(=O)=O)c(S(C)(=O)=O)cc1C(=O)NC(=N)N [Malate-NF1] ... 5.510
Cc1cc(S(C)(=O)=O)c(S(C)(=O)=O)cc1C(=O)NC(=N)N [HCl-A3] ... 0.418

So what's the measured Dissolution levels in FeSSIF pH 5.0 for this one? Cc1cc(S(C)(=O)=O)c(S(C)(=O)=O)cc1C(=O)NC(=N)N [Phosphate-NF1] 3.373

So what's the measured Dissolution levels in FeSSIF pH 5.0 for this one? Cc1cc(S(C)(=O)=O)c(S(C)(=O)=O)cc1C(=O)NC(=N)N [Malonate-NF1] 3.527

So what's the measured Dissolution levels in FeSSIF pH 5.0 for this one? Cc1cc(S(C)(=O)=O)c(S(C)(=O)=O)cc1C(=O)NC(=N)N [HCl-A1] 0.541

So what's the measured Dissolution levels in FeSSIF pH 5.0 for this one? Cc1cc(S(C)(=O)=O)c(S(C)(=O)=O)cc1C(=O)NC(=N)N [HCl-A2] 0.990

###

Here, each record is paired with measured Water uptake levels (Water Vapour Sorption) data.
Assay: Water Vapour Sorption isotherm (DVS), hygroscopicity acc. to Ph. Eur.
Type: physicochemical
Details: relative humidity range 0-80% rh, 25° C.
Structures can show the parent of a compound that is named as a salt.
API: value field is a number in wt %; no unit string.

Cc1cc(S(C)(=O)=O)c(S(C)(=O)=O)cc1C(=O)NC(=N)N [Besylate-NF1] ... 1.0
Cc1cc(S(C)(=O)=O)c(S(C)(=O)=O)cc1C(=O)NC(=N)N [HCl-A2] ... 0.1

So what's the measured Water uptake levels (Water Vapour Sorption) for this one? Cc1cc(S(C)(=O)=O)c(S(C)(=O)=O)cc1C(=O)NC(=N)N [Tosylate-NF1] 1.0

###

Experiment: Mini-dissolution in FeSSIF medium (pH 5.0), dissolved quantity by HPLC
Type: physicochemical
Settings: FeSSIF pH 5.0, 37° C., 5 min
readout: Dissolution levels in FeSSIF pH 5.0
Answer with the value and then the unit.

Solved cases (6 shown):
Cc1cc(S(C)(=O)=O)c(S(C)(=O)=O)cc1C(=O)NC(=N)N.Cl.O [HCl-H1, reference compound] ... 0.494 mg/mL
Cc1cc(S(C)(=O)=O)c(S(C)(=O)=O)cc1C(=O)NC(=N)N [Oxalate-NF1] ... 1.329 mg/mL
Cc1cc(S(C)(=O)=O)c(S(C)(=O)=O)cc1C(=O)NC(=N)N [Citrate-NF1] ... 2.056 mg/mL
Cc1cc(S(C)(=O)=O)c(S(C)(=O)=O)cc1C(=O)NC(=N)N [Fumarate-NF1] ... 2.606 mg/mL
Cc1cc(S(C)(=O)=O)c(S(C)(=O)=O)cc1C(=O)NC(=N)N [Tosylate-NF1] ... 1.961 mg/mL
Cc1cc(S(C)(=O)=O)c(S(C)(=O)=O)cc1C(=O)NC(=N)N (racemic) [Tartrate-NF1] ... 5.165 mg/mL

Now for a further compound.
So what's the measured Dissolution levels in FeSSIF pH 5.0 for this one? Cc1cc(S(C)(=O)=O)c(S(C)(=O)=O)cc1C(=O)NC(=N)N [Besylate-NF1] 4.059 mg/mL
